assay: Inhibition of antigen receptor-mediated NF-kappaB activity in HEK293 cells after 16 hrs by luciferase reporter gene assay; settings: Homo sapiens, HEK293, 16 h
pIC50: −log10 of the molar value.

[
  {
    "SUBSTANCE_SMILES": "Cc1cc2nc(N3CCC(C)CC3)n(CC(=O)c3cc(C(C)(C)C)c(O)c(C(C)(C)C)c3)c2cc1C",
    "READOUT_RELATION": "<",
    "pIC50": 5.30
  },
  {
    "SUBSTANCE_SMILES": "CCN1CCN(c2nc3cc(C)c(C)cc3n2CC(=O)c2cc(C(C)(C)C)c(O)c(C(C)(C)C)c2)CC1",
    "READOUT_RELATION": "<",
    "pIC50": 5.30
  },
  {
    "SUBSTANCE_SMILES": "Cc1cc2nc(NCCCO)n(CC(=O)c3cc(C(C)(C)C)c(O)c(C(C)(C)C)c3)c2cc1C",
    "READOUT_RELATION": "=",
    "pIC50": 7.15
  },
  {
    "SUBSTANCE_SMILES": "CCCCNc1nc2cc(C)c(C)cc2n1CC(=O)c1cc(C(C)(C)C)c(O)c(C(C)(C)C)c1",
    "READOUT_RELATION": "=",
    "pIC50": 7.00
  },
  {
    "SUBSTANCE_SMILES": "COCCCNc1nc2cc(C)c(C)cc2n1CC(=O)c1cc(C(C)(C)C)c(OC)c(C(C)(C)C)c1",
    "READOUT_RELATION": "=",
    "pIC50": 6.60
  }
]

====

Recorded measurements of half-life, one per entry
assay: Metabolic stability in human liver S9 fraction assessed as half life in NADPH co-factor system by RP-HPLC; type: ADME, subcellular

[
  {
    "SUBSTANCE_SMILES": "Cc1cc2nc(N3CCN(CCO)CC3)n(CC(=O)c3cc(C(C)(C)C)c(O)c(C(C)(C)C)c3)c2cc1C",
    "half-life (h)": 4.6
  },
  {
    "SUBSTANCE_SMILES": "Cc1cc2nc(N3CCN(Cc4ccccc4)CC3)n(CC(=O)c3cc(C(C)(C)C)c(O)c(C(C)(C)C)c3)c2cc1C",
    "half-life (h)": 4.4
  },
  {
    "SUBSTANCE_SMILES": "Cc1cc2nc(NCCCO)n(CC(=O)c3cc(C(C)(C)C)c(O)c(C(C)(C)C)c3)c2cc1C",
    "half-life (h)": 15.2
  }
]

====

Recorded measurements of pIC50, one per entry
experiment: Inhibition of antigen receptor-mediated NF-kappaB activity in HEK293 cells after 16 hrs by luciferase reporter gene assay; settings: Homo sapiens, HEK293, 16 h
pIC50: −log10 of the molar value.

[
  {
    "COMPOUND": "COC[C@@H]1CCCN1c1nc2cc(C)c(C)cc2n1CC(=O)c1cc(C(C)(C)C)c(O)c(C(C)(C)C)c1",
    "pIC50": "< 5.30"
  },
  {
    "COMPOUND": "COc1c(C(C)(C)C)cc(C(=O)Cn2c(NCCCO)nc3cc(C)c(C)cc32)cc1C(C)(C)C",
    "pIC50": 7.15
  },
  {
    "COMPOUND": "COc1ccccc1N1CCN(c2nc3cc(C)c(C)cc3n2CC(=O)c2cc(C(C)(C)C)c(O)c(C(C)(C)C)c2)CC1",
    "pIC50": "< 5.30"
  },
  {
    "COMPOUND": "Cc1cc2nc(N3CCN(Cc4ccccc4)CC3)n(CC(=O)c3cc(C(C)(C)C)c(O)c(C(C)(C)C)c3)c2cc1C",
    "pIC50": "< 5.30"
  },
  {
    "COMPOUND": "C#CCNc1nc2cc(C)c(C)cc2n1CC(=O)c1cc(C(C)(C)C)c(O)c(C(C)(C)C)c1",
    "pIC50": "< 5.10"
  },
  {
    "COMPOUND": "Cc1cc2nc(N3CCCC(C)C3)n(CC(=O)c3cc(C(C)(C)C)c(O)c(C(C)(C)C)c3)c2cc1C (stereo not drawn)",
    "pIC50": "< 5.30"
  },
  {
    "COMPOUND": "COCCCNc1nc2cc(C)c(C)cc2n1CC(=O)c1ccc(O)cc1",
    "pIC50": "< 5.30"
  },
  {
    "COMPOUND": "Cc1cc2nc(N3CCCCC3CN(C)C)n(CC(=O)c3cc(C(C)(C)C)c(O)c(C(C)(C)C)c3)c2cc1C (stereo not drawn)",
    "pIC50": "< 5.30"
  }
]
